These entries and their values trace back to patent US20250388666A1.

Listing of recorded fold better than Parent (KD) by entry.
Target: T1, CEACAM1 (Sino Biological) (human, UniProt P13688 35-428, limits assumed)
T1 construct: may be the same as CEACAM1-HIS; also called hCEACAM1; biotinylated soluble CEACAM1
T1 sequence: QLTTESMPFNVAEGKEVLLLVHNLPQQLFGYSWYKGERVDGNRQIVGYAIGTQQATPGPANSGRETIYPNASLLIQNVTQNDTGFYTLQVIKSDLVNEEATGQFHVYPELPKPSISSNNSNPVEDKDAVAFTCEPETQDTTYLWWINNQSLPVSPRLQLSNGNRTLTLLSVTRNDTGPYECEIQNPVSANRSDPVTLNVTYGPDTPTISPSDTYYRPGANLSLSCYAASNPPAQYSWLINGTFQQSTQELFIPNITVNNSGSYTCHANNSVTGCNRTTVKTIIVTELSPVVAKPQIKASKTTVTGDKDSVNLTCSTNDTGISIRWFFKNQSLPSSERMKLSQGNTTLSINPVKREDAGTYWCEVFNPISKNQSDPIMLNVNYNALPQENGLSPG
Experiment: SPR single-cycle

{"binder": "He6/L3 (antibody, IgG4, V domains shown, IgG4 S241P, kappa) VH: EVQLLESGGGLVQPGGSLRLSCAASGFSFSDYYLYWVRQAPGKGLEWVATISVGGGQTSYADSVKGRFTISRDNSKNTLYLQMNSLRAEDTAMYYCARARTYGPAWFAYWGQGTLVTVSS VL: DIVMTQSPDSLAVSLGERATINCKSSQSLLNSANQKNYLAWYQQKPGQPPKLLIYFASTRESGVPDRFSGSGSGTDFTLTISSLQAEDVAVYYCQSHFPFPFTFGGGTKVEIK", "quantity unit": "fold", "fold better than Parent (KD)": 1.69}
{"binder": "He6/L5 (antibody, IgG4, V domains shown, IgG4 S241P, kappa) VH: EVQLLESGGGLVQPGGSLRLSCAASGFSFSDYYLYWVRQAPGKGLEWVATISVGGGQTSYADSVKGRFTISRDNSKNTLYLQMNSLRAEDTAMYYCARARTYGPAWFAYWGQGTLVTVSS VL: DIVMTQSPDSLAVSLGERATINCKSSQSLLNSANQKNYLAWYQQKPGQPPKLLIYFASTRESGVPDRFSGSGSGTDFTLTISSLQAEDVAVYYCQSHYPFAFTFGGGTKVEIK", "quantity unit": "fold", "fold better than Parent (KD)": 1.89}
{"binder": "He1/L18 (antibody, IgG4, V domains shown, IgG4 S241P, kappa) VH: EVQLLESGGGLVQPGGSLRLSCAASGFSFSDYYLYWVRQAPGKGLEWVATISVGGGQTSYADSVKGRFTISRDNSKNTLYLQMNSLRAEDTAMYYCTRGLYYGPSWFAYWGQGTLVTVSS VL: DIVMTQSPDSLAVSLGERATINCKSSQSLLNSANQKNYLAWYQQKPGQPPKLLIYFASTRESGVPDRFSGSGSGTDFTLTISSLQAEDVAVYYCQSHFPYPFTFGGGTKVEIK", "quantity unit": "fold", "fold better than Parent (KD)": 1.69}
